Let's look at some sequences and their measured protein stability index.
Test system: Saccharomyces cerevisiae
experiment_description: protein stability index of tFT-peptide fusion (C-terminal peptide) (PSI (0-1 scale)); higher = more stable (slower turnover)
condition_set: genetic background: das1 deletion; temperature: 30 C
// no unit, no text: just the number

The cases that follow already have their protein stability index on record.
INSERT INTO assay_data (sequence_string, tgt, observed) VALUES
  ('HYPSSDIRGDIL [YOR161C-C C-terminal 12 aa]', 'Saccharomyces cerevisiae', 0.691),
  ('RWELVRESWREL [HSV2 C-terminal 12 aa]', 'Saccharomyces cerevisiae', 0.703),
  ('QYMTSGYASNWN [YAR061W C-terminal 12 aa]', 'Saccharomyces cerevisiae', 0.715),
  ('ETMGARLKIDGK [YJR149W C-terminal 12 aa]', 'Saccharomyces cerevisiae', 0.708),
  ('VWADILNKLGKD [ADK1 C-terminal 12 aa]', 'Saccharomyces cerevisiae', 0.704),
  ('EAQSARNEKPLK [COS8 C-terminal 12 aa]', 'Saccharomyces cerevisiae', 0.685),
  ('LSEASKLASKPL [COX15 C-terminal 12 aa]', 'Saccharomyces cerevisiae', 0.701),
  ('TALNSGRSRDVK [YJL027C C-terminal 12 aa]', 'Saccharomyces cerevisiae', 0.682);

Write down protein stability index measured for item EDSKEYFEAANK [TSA1 C-terminal 12 aa]
0.71

Write down protein stability index measured for item TRGPRRKLPTRV [BSP1 C-terminal 12 aa]
0.686

Write down protein stability index measured for item SWINLDFNDGDE [MDM12 C-terminal 12 aa]
0.696

Write down protein stability index measured for item RLLGPCFKTGGI [YLR154W-B C-terminal 12 aa]
0.696

Write down protein stability index measured for item DVERVIRNAGRS [HSL1 C-terminal 12 aa]
0.693

Write down protein stability index measured for item EREKVDIHIPQV [BEM3 C-terminal 12 aa]
0.711

Write down protein stability index measured for item IIWEKRNPEQKI [ERG11 C-terminal 12 aa]
0.702

Write down protein stability index measured for item EVLERSVLLRKR [MDJ2 C-terminal 12 aa]
0.699

Write down protein stability index measured for item LKKEKLQALPTP [PDP3 C-terminal 12 aa]
0.691

Write down protein stability index measured for item SAIADDDEEHKE [LHP1 C-terminal 12 aa]
0.71

Write down protein stability index measured for item NEPTNSDIVELD [UBA2 C-terminal 12 aa]
0.693

Write down protein stability index measured for item KLVWTLQSLCMR [YEL032C-A C-terminal 12 aa]
0.688

---

Tested on: Saccharomyces cerevisiae
experiment_description: protein stability index of tFT-peptide fusion (C-terminal peptide) (PSI (0-1 scale)); higher = more stable (slower turnover)
condition_set: genetic background: das1 deletion; temperature: 30 C
Let's look at some sequences and their measured protein stability index.

The cases that follow already have their protein stability index on record.
INSERT INTO results (sequence_string, observed) VALUES
  ('AQLLLTLNEETS [CAF40 C-terminal 12 aa]', 0.684),
  ('DSTMKIWSPGYQ [STE4 C-terminal 12 aa]', 0.716),
  ('DKPLYKRMFSTK [HXT6 C-terminal 12 aa]', 0.694),
  ('RKFHVVDTSLFA [MOG1 C-terminal 12 aa]', 0.688),
  ('SAIEEGISLNKG [TEL2 C-terminal 12 aa]', 0.706),
  ('NEEMAEISNPFR [FEN2 C-terminal 12 aa]', 0.699),
  ('LNTSNECCTSDD [BIL2 C-terminal 12 aa]', 0.692),
  ('DTSSTVEKKQKT [CCL1 C-terminal 12 aa]', 0.686);

Write down protein stability index measured for item VGDLEAGLRRKK [IMG1 C-terminal 12 aa]
0.712

Write down protein stability index measured for item DSLENKIDSMTK [INH1 C-terminal 12 aa]
0.715

Write down protein stability index measured for item LEKQEDYIDNLV [RPC37 C-terminal 12 aa]
0.697

Write down protein stability index measured for item VNGELKYVKPED [AFT1 C-terminal 12 aa]
0.694

Write down protein stability index measured for item PEVIDTRKDNSN [COX11 C-terminal 12 aa]
0.687

Write down protein stability index measured for item VIDLDNSVAREV [MDL1 C-terminal 12 aa]
0.704

Write down protein stability index measured for item LASVRLSWYSII [YGR204C-A C-terminal 12 aa]
0.71

Write down protein stability index measured for item DSYKLMHSHIHP [IZH1 C-terminal 12 aa]
0.691

Write down protein stability index measured for item KNSDSTEKNATI [DAT1 C-terminal 12 aa]
0.702

Write down protein stability index measured for item KLLLNELRSFCV [PCL10 C-terminal 12 aa]
0.72
